- target: Monoamine oxidase-A (MAO-A) (Homo sapiens)
- Sequence (P21397 whole entry): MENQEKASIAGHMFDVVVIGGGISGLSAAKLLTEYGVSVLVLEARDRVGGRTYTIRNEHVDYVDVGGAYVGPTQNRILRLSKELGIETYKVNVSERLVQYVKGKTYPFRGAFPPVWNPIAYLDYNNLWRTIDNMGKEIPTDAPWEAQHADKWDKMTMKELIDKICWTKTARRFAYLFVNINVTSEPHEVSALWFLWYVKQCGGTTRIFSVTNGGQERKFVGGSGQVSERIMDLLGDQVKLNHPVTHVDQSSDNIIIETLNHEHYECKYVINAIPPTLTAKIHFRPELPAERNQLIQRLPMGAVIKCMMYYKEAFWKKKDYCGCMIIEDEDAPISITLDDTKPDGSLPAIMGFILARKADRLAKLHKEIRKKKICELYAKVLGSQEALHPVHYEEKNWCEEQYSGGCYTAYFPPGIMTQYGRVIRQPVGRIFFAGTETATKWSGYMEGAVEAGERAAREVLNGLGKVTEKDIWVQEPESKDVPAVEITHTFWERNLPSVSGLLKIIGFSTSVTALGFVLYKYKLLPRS
- assay comment: biochemical
- Assay type: biochemical
- measurement parameters: using TR-FRET DYRK1A IC50 values
property name: DYRK1A:MAO-A (IC50 ratio)

[[record]]
compound = "Cc1nccc2c1[nH]c1ccccc12 [Harmane, harmane]"
property_name = "DYRK1A:MAO-A (IC50 ratio)"
experimental_result = 4.2

[[record]]
compound = "COc1ccc2c3c([nH]c2c1)[C@@H](C)NCC3 [Tetrahydroharmine, tetrahydroharmine]"
property_name = "DYRK1A:MAO-A (IC50 ratio)"
experimental_result = 6.2

[[record]]
compound = "COc1ccc2c3c([nH]c2c1)C(C)=NCC3 [Harmaline, harmaline]"
property_name = "DYRK1A:MAO-A (IC50 ratio)"
experimental_result = 26.1

[[record]]
compound = "Cc1[nH]ccc2c1[nH]c1cc(=O)ccc12 [Harmol, harmol]"
property_name = "DYRK1A:MAO-A (IC50 ratio)"
experimental_result = 0.2

